study.system: HLA-B*18:01
assay.method.text: IEDB peptide-MHC binding, purified MHC/direct/fluorescence; filed as Kd, often an IC50 or EC50 that approximates it; bounds were set here for any values at or beyond the usual limits of such assays
condition: source organism: Escherichia coli O157:H7
pKd: −log10 of the molar value.
measured.endpoint: pKd

-- ask I have this sequence here, "LPPERRQPF" , and I need its recorded pKd.
-- reply ≤ 4.70

* * *

study.system: HLA-C*12:03
assay.method.text: IEDB peptide-MHC binding, purified MHC/direct/fluorescence; filed as Kd, often an IC50 or EC50 that approximates it; bounds were set here for any values at or beyond the usual limits of such assays
condition: source organism: Vaccinia virus Copenhagen
measured.endpoint: pKd
// pKd is dimensionless: -log10 of concentration (M)

-- ask Please report the recorded pKd for "YLYASFCTV" .
-- reply 7.47

* * *

study.system: HLA-B*27:05
assay.method.text: IEDB peptide-MHC binding, purified MHC/direct/fluorescence; filed as Kd, often an IC50 or EC50 that approximates it; bounds were set here for any values at or beyond the usual limits of such assays
condition: source organism: Influenza A virus (A/Duck/Shantou/2088/01(H9N2))
measured.endpoint: Kd

-- ask // Kd lookup, key: "EEMATKADY"
-- reply ≥ 20 µM

* * *

study.system: HLA-B*18:01
assay.method.text: IEDB peptide-MHC binding, purified MHC/competitive/fluorescence; filed as Kd, often an IC50 or EC50 that approximates it; bounds were set here for any values at or beyond the usual limits of such assays
condition: source organism: Vibrio parahaemolyticus RIMD 2210633
measured.endpoint: Kd

-- ask Quick check: Kd of "HVIYFTAFT" ?
-- reply ≥ 20 µM

* * *

study.system: HLA-B*58:01
assay.method.text: IEDB peptide-MHC binding, purified MHC/direct/fluorescence; filed as Kd, often an IC50 or EC50 that approximates it; bounds were set here for any values at or beyond the usual limits of such assays
condition: source organism: Vibrio parahaemolyticus
Recorded Kd by entry

A selection of reference data follows.
sequence.string: QTWKPDDVL
Kd: ≥ 20 µM

sequence.string: ILLRKGHVF
Kd: ≥ 20 µM

Please turn your attention to the following entry.
-- ask I am curious: what Kd value has been reported for "VQGYERIMY" ?
-- reply ≥ 20 µM

* * *

study.system: HLA-B*15:17
assay.method.text: IEDB peptide-MHC binding, purified MHC/direct/fluorescence; filed as Kd, often an IC50 or EC50 that approximates it; bounds were set here for any values at or beyond the usual limits of such assays
condition: source organism: Camelpox virus M-96
measured.endpoint: Kd (nM)
Numeric only. Scale: nM

-- ask // fetch HLA-B*15:17 Kd for "KLIEGTNIW"
-- reply 67.9

* * *

study.system: HLA-B*44:02
assay.method.text: IEDB peptide-MHC binding, purified MHC/competitive/radioactivity; filed as Kd, often an IC50 or EC50 that approximates it; bounds were set here for any values at or beyond the usual limits of such assays
condition: source organism: Dengue virus 3 Sri Lanka/1266/2000
measured.endpoint: pKd
Scale: pKd equals -log10([C]), with [C] in mol/L.

-- ask Give HLA-B*44:02 pKd for "LEKKITQWL"
-- reply 6.48

* * *

pKd values, listed per item
study.system: HLA-B*44:02
assay.method.text: IEDB peptide-MHC binding, purified MHC/competitive/radioactivity; filed as Kd, often an IC50 or EC50 that approximates it; bounds were set here for any values at or beyond the usual limits of such assays
condition: source organism: Mammarenavirus machupoense
pKd: −log10 of the molar value.

sequence.string: PDVGVLFGL
pKd: ≤ 4.11

Now turn to the next sequence.
-- ask Which pKd value is on record for "EEPAALLPL" ?
-- reply ≤ 4.40

* * *

pKd by entry:
study.system: HLA-B*15:01
assay.method.text: IEDB peptide-MHC binding, purified MHC/competitive/fluorescence; filed as Kd, often an IC50 or EC50 that approximates it; bounds were set here for any values at or beyond the usual limits of such assays
condition: source organism: Orthohantavirus andesense
pKd: −log10 of the molar value.

sequence.string: KPKALSEAF
measured.endpoint: pKd
result: ≤ 4.70

-- ask Requested field: pKd. Item: "LEEDIQHFL"
-- reply ≤ 4.70

* * *

study.system: HLA-A*02:11
assay.method.text: IEDB peptide-MHC binding, purified MHC/direct/fluorescence; filed as Kd, often an IC50 or EC50 that approximates it; bounds were set here for any values at or beyond the usual limits of such assays
condition: source organism: Oran virus
measured.endpoint: Kd

-- ask Lab note: need Kd for "KPKALSEAF" on HLA-A*02:11, anyone have it?
-- reply ≥ 20 µM

* * *

study.system: HLA-A*68:02
assay.method.text: IEDB peptide-MHC binding, purified MHC/direct/fluorescence; filed as Kd, often an IC50 or EC50 that approximates it; bounds were set here for any values at or beyond the usual limits of such assays
condition: source organism: Zaire ebolavirus
Consider the following sequences and their measured Kd readings.

sequence.string: LTDRELLLL
result: ≥ 20 µM

Now look at this one.
-- ask # get_value(readout='Kd', item= "WLQKIPLQW" )
-- reply ≥ 20 µM

* * *

study.system: HLA-B*51:01
assay.method.text: IEDB peptide-MHC binding, purified MHC/competitive/fluorescence; filed as Kd, often an IC50 or EC50 that approximates it; bounds were set here for any values at or beyond the usual limits of such assays
condition: source organism: Campylobacter jejuni subsp. jejuni NCTC 11168 = ATCC 700819
measured.endpoint: Kd

-- ask Entry "KGMKIQHFK" has what Kd?
-- reply ≥ 20 µM

* * *

study.system: HLA-B*35:01
assay.method.text: IEDB peptide-MHC binding, purified MHC/competitive/fluorescence; filed as Kd, often an IC50 or EC50 that approximates it; bounds were set here for any values at or beyond the usual limits of such assays
condition: source organism: Francisella tularensis subsp. tularensis FSC198
measured.endpoint: Kd
Give the number first and the unit second.

-- ask For the sequence "MEVGNTVAF" , what Kd is on record?
-- reply 558 nM

* * *

study.system: HLA-B*27:03
assay.method.text: IEDB peptide-MHC binding, purified MHC/competitive/fluorescence; filed as Kd, often an IC50 or EC50 that approximates it; bounds were set here for any values at or beyond the usual limits of such assays
condition: source organism: Shigella boydii CDC 3083-94
measured.endpoint: Kd

-- ask If you can, please state the reported Kd value of "RNNDPTLPY" .
-- reply ≥ 20 µM

* * *

study.system: HLA-B*39:01
assay.method.text: IEDB peptide-MHC binding, purified MHC/competitive/fluorescence; filed as Kd, often an IC50 or EC50 that approximates it; bounds were set here for any values at or beyond the usual limits of such assays
condition: source organism: Encephalitozoon cuniculi GB-M1
measured.endpoint: Kd

-- ask I'm curious: which Kd was measured for "NLFEIEWEE" tested on HLA-B*39:01?
-- reply ≥ 20 µM

* * *

study.system: HLA-B*58:01
assay.method.text: IEDB peptide-MHC binding, purified MHC/direct/fluorescence; filed as Kd, often an IC50 or EC50 that approximates it; bounds were set here for any values at or beyond the usual limits of such assays
condition: source organism: Ebola virus - Gabon (1994-1997)
measured.endpoint: Kd

-- ask Fill in: Kd of "YFTFDLTAL" is ___
-- reply ≥ 20 µM

* * *

study.system: HLA-B*15:42
assay.method.text: IEDB peptide-MHC binding, purified MHC/competitive/fluorescence; filed as Kd, often an IC50 or EC50 that approximates it; bounds were set here for any values at or beyond the usual limits of such assays
condition: source organism: Vaccinia virus Copenhagen
measured.endpoint: Kd

-- ask Field request: Kd | item: "YPPPRYITV"
-- reply ≥ 5 µM

* * *

study.system: HLA-A*02:01
assay.method.text: IEDB peptide-MHC binding, purified MHC/competitive/fluorescence; bounds were set here for any values at or beyond the usual limits of such assays
condition: source organism: West Nile virus NY-99
measured.endpoint: pIC50
Answer as the number alone; pIC50 is minus log10 of concentration in mol/L.

-- ask What measured pIC50 goes with "ATWAENIQV" ?
-- reply 6.11

* * *

study.system: HLA-A*24:03
assay.method.text: IEDB peptide-MHC binding, purified MHC/direct/fluorescence; filed as Kd, often an IC50 or EC50 that approximates it; bounds were set here for any values at or beyond the usual limits of such assays
condition: source organism: Yersinia pestis
pKd: −log10 of the molar value.
measured.endpoint: pKd

-- ask Which pKd value is on record for "LTDEDKQNQ" ?
-- reply ≤ 4.70

* * *

study.system: HLA-B*44:02
assay.method.text: IEDB peptide-MHC binding, purified MHC/competitive/radioactivity; filed as Kd, often an IC50 or EC50 that approximates it; bounds were set here for any values at or beyond the usual limits of such assays
condition: source organism: Dengue virus 1 Brazil/97-11/1997
measured.endpoint: Kd (nM)
# number only, unit nM dropped from output

-- ask Find the recorded Kd belonging to "AEHSGTSHNI" and report it.
-- reply 48.2

Taken from the Immune Epitope Database (IEDB).
